Assign MIC to each entry below.
Test system: Bacillus subtilis
Assay: Antibacterial activity against […] Bacillus subtilis ATCC9372 assessed as reduction in bacterial growth by broth microdilution assay
Assay type: functional
Answers are plain numbers, in µg/mL.

## Input Please report the recorded MIC for CN[C@H](CC(C)C)C(=O)N[C@H]1C(=O)N[C@@H](CC(N)=O)C(=O)N[C@H]2C(=O)N[C@H]3C(=O)N[C@H](C(=O)N[C@H](C(=O)O)c4cc(O)cc(O)c4-c4cc3ccc4O)[C@H](O)c3ccc(c(Cl)c3)Oc3cc2cc(c3O[C@@H]2O[C@H](CO)[C@@H](O)[C@H](O)[C@H]2O[C@H]2C[C@](C)(N)[C@H](O)[C@H](C)O2)Oc2ccc(cc2Cl)[C@H]1O .
## Output 0.5

## Input Also CCCCN(CCCC)CCCNC(=O)COc1c2c(c3c(c1C(C)=O)OC(C)(CCC=C(C)C)C=C3)OC(C)(CCC=C(C)C)C=C2 (centres undefined) , if possible.
## Output 8

## Input Also CC(=O)c1c(OCC(=O)N(C)CCCN(C)C)c2c(c3c1OC(C)(CCC=C(C)C)C=C3)OC(C)(CCC=C(C)C)C=C2 (centres undefined) , if possible.
## Output 2

Now look at this entry.
## Input Please report the recorded MIC for CCN(CC)CCCNC(=O)COc1c2c(c3c(c1C(C)=O)OC(C)(CCC=C(C)C)C=C3)OC(C)(CCC=C(C)C)C=C2 (centres undefined) .
## Output 2
